// values below are reported pPe pH 6.2 GIT PAMPA
- METHOD_DESCRIPTION: PAMPA GIT (intestinal) permeability
- Assay type: in vitro ADME
- CONDITION_SUMMARY: −logPe, pH 6.2, 25 °C, 4 h, lipid GIT-0
OBSERVATION_TYPE: pPe pH 6.2 GIT PAMPA

MOLECULE: COc1ccc(CC(=O)N[C@@H](CO)[C@@H](O)c2ccc(N)cc2)cc1 [Compound 8]
QUANTITATIVE_READOUT: 4.469
//
MOLECULE: Cn1cc(CNCCc2cccc3cccnc23)c(-c2cccnc2)n1 [Compound 7]
QUANTITATIVE_READOUT: 4.246
//
MOLECULE: O=C(Cn1c(=O)[nH]c(=O)c2ccccc21)NCCc1cccc(F)c1 [Compound 9]
QUANTITATIVE_READOUT: 4.361
//
MOLECULE: O=C(CCn1ccc2ccccc21)NCCCn1cnc2ccccc21 [Compound 2]
QUANTITATIVE_READOUT: 4.339
//
MOLECULE: Cn1cc(CNC(=O)N2CCC(C(N)=O)CC2)c(-c2ccccc2)n1 [Compound 6]
QUANTITATIVE_READOUT: 4.428
//
MOLECULE: O=C(CCn1nc(-c2ccccc2)ccc1=O)NCCc1ccccc1 [Compound 3]
QUANTITATIVE_READOUT: 4.207
//
MOLECULE: O=C(Cn1ccc2ccccc21)NCCOc1cccc2cccnc12 [Compound 5]
QUANTITATIVE_READOUT: 4.230
//
MOLECULE: Cn1cc(CNCc2ccc3ncccc3c2)c(-c2ccccc2F)n1 [Compound 4]
QUANTITATIVE_READOUT: 4.251
//
MOLECULE: CN(Cc1ccccc1-c1ccccc1)C(=O)CCn1ccccc1=O [Compound 1]
QUANTITATIVE_READOUT: 4.268
//
MOLECULE: CC(C)n1cc(CC(=O)NCCc2ccc(O)cc2)c2ccccc21 [Compound 10]
QUANTITATIVE_READOUT: 4.202

---

- Tested on: NEURO-2A cells
- METHOD_DESCRIPTION: Neurotoxicity test, MTT-dye reduction assay
- Format: cell-based
- CONDITION_SUMMARY: Mus musculus, N2a; 72-h incubation, MTT; read-out: IC50 Neuro2A
// values below are reported IC50

MOLECULAR_STRING: Cn1cc(CNCCc2cccc3cccnc23)c(-c2cccnc2)n1
IC50: > 100 µM
//
MOLECULAR_STRING: O=C(Cn1ccc2ccccc21)NCCOc1cccc2cccnc12
IC50: > 100 µM
//
MOLECULAR_STRING: Cn1cc(CNCc2ccc3ncccc3c2)c(-c2ccccc2F)n1
IC50: 35 µM
//
MOLECULAR_STRING: Cn1cc(CNC(=O)N2CCC(C(N)=O)CC2)c(-c2ccccc2)n1
IC50: > 100 µM
//
MOLECULAR_STRING: COc1ccc(CC(=O)N[C@@H](CO)[C@@H](O)c2ccc(N)cc2)cc1
IC50: > 100 µM
//
MOLECULAR_STRING: O=C(CCn1nc(-c2ccccc2)ccc1=O)NCCc1ccccc1
IC50: > 100 µM
//
MOLECULAR_STRING: O=C(CCn1ccc2ccccc21)NCCCn1cnc2ccccc21
IC50: > 100 µM
//
MOLECULAR_STRING: O=C(Cn1c(=O)[nH]c(=O)c2ccccc21)NCCc1cccc(F)c1
IC50: > 100 µM
//
MOLECULAR_STRING: CC(C)n1cc(CC(=O)NCCc2ccc(O)cc2)c2ccccc21
IC50: 53 µM
//
MOLECULAR_STRING: CN(Cc1ccccc1-c1ccccc1)C(=O)CCn1ccccc1=O
IC50: > 100 µM
